- targetOrTestSystem: gH/gL/UL128/UL130/UL131A pentamer complex (PC) of HCMV strain TB40/E virus (human cytomegalovirus strain TB40/E)
- protocolDescription: cell-based or functional assay
observationType: IC50, neutralization of TB40/E infection of ARPE-19 (ng/mL)
A number alone suffices; assume ng/mL.

Read off the recorded IC50, neutralization of TB40/E infection of ARPE-19 for 54E11 (antibody, V domains shown, also called NAb 54E11) VH: QIQLVQSGPELKKPGETVKISCKASGYTFTSYGMNWVKQAPGKGLKWMGWINTYTGEPTYADDFKGRFAFSLETSASTAYLQINNLKNEDTATYFCAREHYYGINPLLGCWGQGTTLTVSS VL: DIQMTQTTSSLSASLGDRVTISCSASQGISNYLNWYQQKPDGTVKLLIYDTSSLHSGVPSRFSGSGSGTDYSLTISNLEPEDIATYYCQQYSKLPYTFGGGTKLEIK 3.4

Read off the recorded IC50, neutralization of TB40/E infection of ARPE-19 for 12E2 (antibody, V domains shown, also called NAb 12E2) VH: EVKLVESGGGLVQPGGSLKLSCATSGFTFSDYYMFWVRQTPEKKLEWVAYISNGGGSTYYPDTVKGRFTISRDNDKNTLYLQMSRLKSDDTALYYCVRPKRDFQYLYAMDYWGQGTSVTVSS VL: DIVLTQSPASLAVSLGQRATISCRASKSVSTSGYSYMHWYQQKPGQSPKLLIYLASNLESGVPARFSGSGSGTDFTLNIHPVEDEDAATYYCQHSRELPWTFGGGTKLEIK 3.7

Read off the recorded IC50, neutralization of TB40/E infection of ARPE-19 for 21F6 (antibody, V domains shown, also called NAb 21F6) VH: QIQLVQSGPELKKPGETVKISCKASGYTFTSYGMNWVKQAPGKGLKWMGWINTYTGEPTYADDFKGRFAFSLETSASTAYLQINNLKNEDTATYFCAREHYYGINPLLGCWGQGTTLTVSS VL: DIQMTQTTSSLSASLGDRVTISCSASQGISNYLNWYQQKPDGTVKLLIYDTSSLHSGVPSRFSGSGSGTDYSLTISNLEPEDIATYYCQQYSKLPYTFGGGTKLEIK 2.6
